System: HCT-15 | Read-out: log10(GI50)
In our notation, the value equals log10 of GI50 in µM.

| COMPOUND | log10(GI50) |
| --- | --- |
| Nc1cc2c(c3ccccc13)C(CCl)CN2C(=O)c1cc2cc(NC(=O)c3cc4ccccc4o3)ccc2[nH]1 (stereo not given) | -2.42 |
| COC(=O)C1=C(c2cc(OC)c(OC)c(OC)c2)OC(c2cc(OC)c(OC)c(OC)c2)C1 (stereo not given) | 1.36 |
| COc1cc([C@@H]2c3cc4c(cc3[C@H](OC3OC5COC(C(C)C)OC5C(O)C3O)C3COC(=O)[C@@H]32)OCO4)cc(OC)c1OC (stereo not given in full) | 0.65 |
| CCOC(=O)c1c(N2CCOCC2)[nH]c(=O)c(C(c2c(Cl)cccc2Cl)c2c(O)c(C(=O)OCC)c(N3CCOCC3)[nH]c2=O)c1O | 0.67 |
| C=C(Cl)C(Cl)(CBr)CCC(Cl)C(C)C (stereo not given) | 0.74 |

Please give the documented log10(GI50) of Cc1cc(Cl)ccc1NC(=O)/C(Cc1nc2ccc(C(=O)c3ccccc3)cc2nc1O)=N/NC(=O)c1ccncc1
1.96

Please list log10(GI50) recorded for the compound COc1cc(C2C3=C(COC3=O)OC(C)(C)Oc3cc4c(cc32)OCO4)cc(OC)c1OC (stereo not given)
-0.43

Please look at this compound and report its log10(GI50): CC(=O)CC1(CBr)Nc2ccc([N+](=O)[O-])cc2NC1=O (stereo not given)
1.92

Please report log10(GI50) for the following compound: O=c1c2c([nH]c3cc4c(cc13)OCO4)-c1ccccc1C2
1.29

* * *

- Tested on: SK-MEL-2
- ASSAY_DETAILS: NCI tumour cell line growth inhibition, 48 h
Calls of active or inactive are those of the source. Rule as the data show it: active = GI50 up to about 1.1 µM and inactive = higher.
The reply should be one of these categories: 1 (active), 0 (inactive)

| MOLECULE | TARGET_OR_SYSTEM | LABEL_CLASS |
| --- | --- | --- |
| CC[C@]1(Cc2ccc(OC)c(OC)c2)C=[N+]([O-])O[C@H](OCc2ccccc2)[C@@H]1OC(C)=O | SK-MEL-2 | 0 |
| COc1cc(/C=C/c2ccccn2)cc(OC)c1OC | SK-MEL-2 | 0 |
| N#Cc1c2c(c(N)oc1=O)C(c1ccccc1)CC(=O)N2 (centres undefined) | SK-MEL-2 | 0 |
| COc1cc(/C=C2\CCC(C)C3=C(c4cc(OC)c(OC)c(OC)c4)C(C#N)=C(N)OC32)cc(OC)c1OC (centres undefined) | SK-MEL-2 | 0 |
| CC(C)(C)N(Cc1ccc2c(c1)OCO2)C(=O)/C=C\[S+]([O-])c1ccccc1 (centres undefined) | SK-MEL-2 | 0 |
| C=C(Cl)C(Cl)(CBr)CCC(Cl)C(C)C (centres undefined) | SK-MEL-2 | 1 |

Look up the recorded call for c1ccc(C(=NNc2cnc3ccccc3n2)c2ccccn2)cc1 in this test.
0

For CCOc1ccccc1NC(=O)CC1SC(Nc2ccc([N+](=O)[O-])cc2)=NC1=O (centres undefined) , what call appears in the results of this test?
0

// param item: COC(=O)C1CC2(c3ccccc3)C(=O)c3ccccc3N2O1 (centres undefined) ; yields the recorded call
0

* * *

- Test system: MOLT-4
- ASSAY_DETAILS: NCI tumour cell line growth inhibition, 48 h
Calls of active or inactive are those of the source. Rule as the data show it: active = GI50 up to about 1.1 µM and inactive = higher.
Returns: one label drawn from true (1) for active, false (0) for inactive

Past entries and their recorded results:
| COMPOUND | LABEL_CLASS |
| --- | --- |
| Cc1cc(Cl)ccc1NC(=O)/C(Cc1nc2ccc(C(=O)c3ccccc3)cc2nc1O)=N/NC(=O)c1ccncc1 | false (0) |
| COC(=O)C1=C(C(=O)OC)SC(=C(/N=N/c2ccccc2)c2ccccc2)S1 | false (0) |
| COc1ccc2nc(-c3ccc(O)cc3)sc2c1 | false (0) |
| COc1ccc2c(c1)C(OC)C1c3c(cc4c(c3-2)OCO4)CCN1C (stereo not given) | false (0) |
| CN(C)CCNC(=O)c1ccc(Cl)c2c(Nc3ccc(S(=O)(=O)N=C(N)N)cc3)c3ccccc3nc12 | true (1) |
| c1cc(Sc2nc(Sc3ccncc3)nc(Sc3ccncc3)n2)ccn1 | false (0) |

Hi team, can someone confirm the assay call for C/C=C1/C(=Cc2[nH]c(C=c3[nH]/c(=C/C4=NC(=O)C(CC)=C4C)c(C)c3CCC(=O)O)c(CCC(=O)O)c2C)NC(=O)C1C (stereo not given) ?
false (0)

Short answer needed: outcome of this test for CS(=O)(=O)OCCN(CCOS(C)(=O)=O)c1ccc(/C=N/c2ccc(-c3csc(COc4ccccc4)n3)cc2)cc1 ?
true (1)

Name the outcome recorded for CCN(CC)CCn1ncc2c3c(=O)c4cccnc4n(CCN(CC)CC)c3ccc21 in the assay.
false (0)

Per the assay record, what outcome was assigned to O=C1NC(N2CCOCC2)=N/C1=C\c1ccccc1O ?
false (0)

Hello, I am checking results. What call was entered for COC(=O)[C@]1(C)CCCC2(C)C1CC[C@H]1C=C(C)[C@H]3CCC12C3 (stereo not given in full) ?
false (0)

What did this assay record as the result for O=c1ccn(C2OC(CO)C(P(=O)(O)O)C2O)c(=O)[nH]1 (stereo not given) ?
false (0)

How was O=C(O)C1[C@@H](C(=O)O)C1(Br)CBr (stereo not given in full) classified in this test?
false (0)

Recorded test outcome, item O=C1Nc2ccccc2S/C1=C\c1cccc(C(F)(F)F)c1
false (0)

For COC(=O)c1c(O)ccc2c1c1c(n2Cc2cc(OC)cc(OC)c2)C(=O)c2ccccc2C1=O , what call appears in the results of this test?
false (0)

Give the logged outcome of this assay for the following compound: CC1(C)S[C@@H]2[C@H](NC(=O)CCC[C@@H](N)C(=O)O)C(=O)N2[C@H]1C(=O)O
false (0)

Recorded call for CC(=O)N1N=C(N)CC1=O ?
false (0)

* * *

- Tested on: HOP-18
- ASSAY_DETAILS: NCI tumour cell line growth inhibition, 48 h
Active and inactive are the calls of the source. No stated cut-off is given here; in the data, active = GI50 up to about 1.1 µM and inactive = higher.
Please reply with one of these outcomes: label 1 for active, label 0 for inactive

Solved cases (5 shown):
| COMPOUND | LABEL_CLASS |
| --- | --- |
| O=C(NN1C(=O)CSC1c1ccc(Cl)c(Cl)c1)c1ccncc1 (stereo not given) | label 1 |
| CCN(CC)CCN1C(=O)c2c(c3c4cccc(Cl)c4n(C4OC(CO)C(OC)C(O)C4O)c3c3[nH]c4c(Cl)cccc4c23)C1=O (stereo not given) | label 1 |
| C/C=C1/C(=Cc2[nH]c(C=c3[nH]/c(=C/C4=NC(=O)C(CC)=C4C)c(C)c3CCC(=O)O)c(CCC(=O)O)c2C)NC(=O)C1C (stereo not given) | label 0 |
| COC(=O)C1=C(C(=O)OC)SC(=C(/N=N/c2ccccc2)c2ccccc2)S1 | label 0 |
| O=C1C=C(Nc2ccccc2C(=O)CC(=O)C(=O)Nc2cccc(C(F)(F)F)c2)c2ccccc2C1=O | label 0 |

Test call for this compound, please: CC1(C)C=C(N2CCN(C3=CC(C)(C)NC(C)(C)C3)CC2)CC(C)(C)N1
label 0

Any idea what this test logged for NC1=NC(=O)/C(=C/c2ccccc2[N+](=O)[O-])C(N)=N1 ?
label 0

What did the test return for O=c1ccc2ccccc2o1 ?
label 0

I'd appreciate the recorded outcome for O=S1(=O)N2CN3CN(C2)CN1C3 from this test.
label 0

What call does the record list for C[C@]12CC[C@H](O)CC1=CC[C@@H]1C2CC[C@]2(C)C(=O)NC(=O)CC12 (stereo not given in full) ?
label 0

* * *

- Test system: SK-MEL-28
- ASSAY_DETAILS: NCI tumour cell line growth inhibition, 48 h
Calls of active or inactive are those of the source. Rule as the data show it: active = GI50 up to about 1.1 µM and inactive = higher.
In this exercise, the only acceptable responses are Y = active, N = inactive

Here are 3 compounds together with their reported answers.
| COMPOUND | TARGET_OR_SYSTEM | LABEL_CLASS |
| --- | --- | --- |
| Cc1c(C2=NN=C(/N=N/c3c(O)cccc3O)/C2=C/c2ccccc2)c(=O)n(-c2ccccc2)n1C | SK-MEL-28 | N |
| NNC(=O)CSc1nnc(CCCCCCCCc2nnc(SCC(=O)NN)o2)o1 | SK-MEL-28 | N |
| O=C1CC(=O)NC(NNS(=O)(=O)c2ccccc2)=N1 | SK-MEL-28 | N |

In this assay, the call recorded for Cc1cc(Cl)ccc1NC(=O)/C(Cl)=C(/Cl)C(=O)O was what?
N

Query: recorded result category for NNC(=O)c1nnn(N)c1S in this test
N

Per the assay record, what outcome was assigned to Cc1ccc(N2C(=O)/C(=C3\Sc4c(nc(C)n(C)c4=O)N3c3ccccc3)SC2=S)cc1 ?
N

What was the test verdict on CC(=O)N1CC(C)(C)c2c(C)c(O)c(C)c(C)c21 ?
N

Each recorded value in this set is attributed to ChEMBL document CHEMBL1201862.
